These measurements were taken from PubChem BioAssay (NCI).

- Tested on: PC-3 prostate
- Assay Protocol: NCI-60 one-dose screen, 48 h (100 = growth as untreated, 0 = no growth, -100 = all killed)
- Protocol Conditions: 10 µM unless noted
About 83,000 compounds went through this panel and 20% of them were active in at least one assay; those are over-represented in the sample as a whole.
Please mark True if the recorded growth is equal to or greater than 40%, and False if it falls below.

Some entries whose results are on file:
CCOc1ccc(NC(=O)Nc2ccc(OCC)cc2)cc1 : True
CC(C)NS(=O)(=O)/N=C1\NC(=O)NC1=C(Cl)Cl : True
CCOC(=O)c1cnn(CC(C)O)c1NC(=O)NCc1ccccc1C(F)(F)F (stereo unspecified) : True
COC(=O)c1c(C)nc(C)c2c1C(=O)C=C(NCc1ccccc1)C2=O : True
CC(=O)c1c(Nc2cccc(F)c2)[nH]c2c(Cl)cc(Cl)c(Cl)c2c1=O : False

Now take the following compound into account.
Does growth meet or surpass 40% for COc1cc(-c2nccc3[nH]c(-c4cccc5[nH]ccc45)nc23)cc(OC)c1OC ?
False

---

- System: NCI/ADR-RES ovarian
- Assay Protocol: NCI-60 one-dose screen, 48 h
- Protocol Conditions: 10 µM unless noted
The panel holds about 83,000 compounds, 20% with a hit somewhere; the sample as a whole holds those more often. The source made the active and inactive calls. The calls were made as follows: active = growth percent below 10; inactive = the rest.
Respond using exactly one of the listed classes: active, inactive

CNC(=O)NCC1OC(n2cnc3c(NC(=O)Nc4ccccc4)ncnc32)C2OC(=O)CC12 (configuration not stated) : inactive
CNCC[C@H](Oc1cccc2ccccc12)c1cccs1 : inactive
O=C1Nc2ccccc2/C1=N/N1C(=O)CN(CCCl)C1=O : inactive
NS(=O)(=O)c1ccc(C(=O)N=Nc2c(O)[nH]c3ccc(Cl)cc23)cc1 : inactive
CSc1nc(-c2ccco2)c(C#N)c(=O)n1C : inactive
CC1SC(c2ccccc2O)N(NC(=O)CCC(=O)c2nc3ncccc3[nH]2)C1=O (configuration not stated) : inactive
CNCCCNc1nc2ccccc2c2c(=O)c3cc(Cl)ccc3sc12 : inactive
COc1ccc(C/C(C)=C(\c2ccc(Cl)cc2)c2ccc(OCCN3CCCC3)cc2)cc1 : inactive
O=C(Cn1nc(-c2cccc3ccccc23)ccc1=O)NCc1cccc(Cl)c1 : inactive
Cc1c2ccccc2nc2cc3c(cc12)[C@H]1CC[C@]2(C)C(=O)CC[C@H]2[C@@H]1CC3 : inactive

Which outcome was entered for the compound CCCCCCCCCCOC(=O)c1nn(C(C)=O)c2cc(C)c(C)cc12 in this test?
inactive

Dear all, I need the recorded test outcome for CCCCO[C@@H]1C=C2[C@H]3CC(C)(C)C(=O)C[C@]3(C(=O)O[C@@H]3O[C@H](CO[C@@H]4O[C@H](CO)[C@@H](OC5OC(C)C(O)C(O)C5O)[C@H](O)[C@H]4O)[C@@H](O)[C@H](O)[C@H]3O)CC[C@@]2(C)[C@]2(C)CC[C@H]3C(C)(C)C(=O)CC[C@]3(C)[C@@H]12 (some centres not stated) , thank you.
inactive

// param item: COc1cc(N2C(=O)[C@H](Cl)C2c2ccc(SC)cc2)cc(OC)c1OC (some centres not stated) ; yields the recorded call
active

I'd appreciate the recorded outcome for CCOC(=O)NC(=S)n1oc(=O)c2ccccc21 from this test.
inactive

Please share the test call associated with COc1cc(Cc2cc(OC)c(O)c(OC)c2)cc(OC)c1O .
inactive

Query: recorded result category for COC(=O)[C@]1(C)CCC[C@]2(C)[C@H]3C[C@@H]4[C@H]5[C@@H]6CC/C(=N\OCC/C(N)=N/O)[C@H]5[C@@]3(CC[C@H]21)CC4(C(C)C)O6 in this test
inactive

Hi, sorry to bother you, what did the test record for O=CN1N=C(c2cccc(Nc3ccnc4cc(Cl)ccc34)c2)CC1c1ccc(Cl)cc1 (configuration not stated) ?
active
